target: Siderocalin (Scn) (Homo sapiens, UniProt P80188); experiment: Fluorescence quenching binding assay of Scn; settings: no metal (apo ligand); 100 nM Scn, TBS pH 7.4, 5% DMSO
Sequence (P80188 21-198): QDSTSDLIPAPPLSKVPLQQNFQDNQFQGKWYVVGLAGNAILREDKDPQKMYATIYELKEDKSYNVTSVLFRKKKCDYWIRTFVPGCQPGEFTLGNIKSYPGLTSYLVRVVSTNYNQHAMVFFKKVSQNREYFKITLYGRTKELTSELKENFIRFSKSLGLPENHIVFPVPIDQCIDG
measurement.name: Kd (nM)

O=C(NCCN(CCNC(=O)c1cccc(O)c1O)CCNC(=O)c1cccc(O)c1O)c1cccc(O)c1O; 1.2

[I] O=C(NCCN(CCNC(=O)c1cccc(O)c1O)CCNC(=O)c1cccc(=O)n1O)c1cccc(O)c1O
[II] O=C(NCCN(CCNC(=O)c1cccc(=O)n1O)CCNC(=O)c1cccc(=O)n1O)c1cccc(O)c1O
[III] O=C(NCCN(CCNC(=O)c1cccc(=O)n1O)CCNC(=O)c1cccc(=O)n1O)c1cccc(=O)n1O
Order each entry by recorded Kd, climbing from the minimum. Return value: ordered labels per request.
I, II, III
